Just for reference, ChEMBL document CHEMBL3988442 is where these values come from.

Target: Shiga toxin 2 (Escherichia coli O157:H7) (UniProt P09385+P09386)
Assay: E. coli 0.157:H7 Shiga Toxin SOP - stx2 screening assay
Format: functional
Parameters: scale not given: direction of the effect not stated beside the values
Details: 30 µM
observable: Percent Effect (%)
// note: answer is a bare numeric in %

- compound: "CN(C)C1CCN(C(=O)NCc2ccc(Cn3cncn3)cc2)CC1"
  recorded_result: -19.9
- compound: "CCN1CCn2c(C)cnc2C12CCN(C(=O)c1ccc(Cl)cc1)CC2"
  recorded_result: 8.49
- compound: "COc1ccc(CN2CCCC2Cn2nc(C)nc2C)cc1F (stereo unspecified)"
  recorded_result: -0.778

Request the reported Percent Effect associated with CN(C)[C@@H]1CCN(C(=O)Cc2ccc(F)cc2)[C@H]1Cc1cnn(C)c1
-6.42

Can you share its Percent Effect? I mean this compound: CC(Cn1cccn1)NC(=O)Nc1ccc(N(C)C)nc1 (stereo unspecified)
-47.5

I am curious: what Percent Effect value has been reported for COc1cc(C)nc(N2CCN(C(=O)CN(C)C3CC3)CC2)n1 ?
-33.1

* * *

Biological target: Aspartate--tRNA(Asp/Asn) ligase (Mycobacterium tuberculosis (strain ATCC 25618 / H37Rv)); note: in the data most compounds retested in dose-response had high values
Experiment: Assay for Asp RNA synthetase-1 from Mycobacterium tuberculosis
Type: functional
Set-up: scale not given: direction of the effect not stated beside the values
Conditions: 30 µM
Listed below: Percent Effect values for each entry.
Provide only the numeric value, understood in %.

// known answers, use as guide
- compound: "Cc1cncc(C(=O)N2Cc3ccccc3C3(CCN(C)CC3)C2)c1"
  Percent Effect / %: -2.03
- compound: "Cc1noc(-c2ccc(N3CCCC(C(=O)N4CCSCC4)C3)nc2)n1 (configuration not stated)"
  Percent Effect / %: -3.39
- compound: "COc1c(C(=O)NCc2cccnc2)nnn1Cc1ccc(C)cc1"
  Percent Effect / %: -4.7
- compound: "COc1ccc(CN2CCn3c(CNS(C)(=O)=O)nnc3C2)cc1"
  Percent Effect / %: 1.39

For COc1cccc(S(=O)(=O)NC(=O)COc2c(C)cccc2C)c1 , what is its reported Percent Effect?
-3

Would you mind telling me what Percent Effect value was observed for Cc1ccc2cc(C3(O)CCN(C(=O)CN4CCCC4)CC3)ccc2n1 ?
1.48

Would you mind telling me what Percent Effect value was observed for CCC(=O)N1CCc2[nH]cnc2C12CCN(C(=O)c1snnc1C)CC2 ?
1.62

Look up Percent Effect: Fc1cnc(N2C[C@H]3CCC[C@@]3(COc3ccccn3)C2)nc1
0.435

What measured Percent Effect goes with CC(=O)NC1CCCN(C(=O)NCc2ccc(-c3ccn[nH]3)cc2)C1 (configuration not stated) ?
-1.85

I have this compound here, CCCc1nc(CN2CCOC(Cn3cncn3)C2)no1 (configuration not stated) , and I need its recorded Percent Effect.
0.917

* * *

Biological target: Shiga toxin 2 (Escherichia coli O157:H7) (UniProt P09385+P09386)
Assay: E. coli 0.157:H7 Shiga Toxin SOP - stx2 screening assay
Format: functional
Set-up: scale not given: direction of the effect not stated beside the values
Conditions: 30 µM
observable: Percent Effect (%)
# value in %; strip the unit string

- molecule: "Cn1cc(CN2C[C@@H]3COC[C@]3(C(=O)NCc3ccccn3)C2)cn1"
  subject_of_test: "Shiga toxin 2 (Escherichia coli O157:H7) (UniProt P09385+P09386)"
  Percent Effect (%): -15
- molecule: "CCOCC(O)CN1CCN(C(=O)Cc2ccccc2Cl)CC1 (configuration not stated)"
  subject_of_test: "Shiga toxin 2 (Escherichia coli O157:H7) (UniProt P09385+P09386)"
  Percent Effect (%): 19.1
- molecule: "Cn1nc(CNC(=O)C2COc3ccccc3O2)cc1C1CC1 (configuration not stated)"
  subject_of_test: "Shiga toxin 2 (Escherichia coli O157:H7) (UniProt P09385+P09386)"
  Percent Effect (%): 17
- molecule: "CN(C)CCN(Cc1cccc(C(F)(F)F)c1)C(=O)c1cc[nH]n1"
  subject_of_test: "Shiga toxin 2 (Escherichia coli O157:H7) (UniProt P09385+P09386)"
  Percent Effect (%): -18.8
- molecule: "Cc1cccc(CN2C(=O)CC[C@@H]3[C@H]2CCN3Cc2ccc(C)s2)n1"
  subject_of_test: "Shiga toxin 2 (Escherichia coli O157:H7) (UniProt P09385+P09386)"
  Percent Effect (%): -11.3
- molecule: "Cc1ccc(S(=O)(=O)Nc2ccc(-n3cccc3C(=O)O)c(C)c2)s1"
  subject_of_test: "Shiga toxin 2 (Escherichia coli O157:H7) (UniProt P09385+P09386)"
  Percent Effect (%): 18.8
- molecule: "COc1ccc(C(O)CNC(=O)NCc2csc(C)n2)cc1 (configuration not stated)"
  subject_of_test: "Shiga toxin 2 (Escherichia coli O157:H7) (UniProt P09385+P09386)"
  Percent Effect (%): -23.7
- molecule: "CC[C@H](N)Cn1nc(-c2cccs2)oc1=O"
  subject_of_test: "Shiga toxin 2 (Escherichia coli O157:H7) (UniProt P09385+P09386)"
  Percent Effect (%): 5.59

Which value of Percent Effect has been reported for COCCC(=O)N1CCn2c(COCC3CC3)cnc2C1C (configuration not stated) in the records?
5.04

Please report the recorded Percent Effect for Cc1ccc(NC(=O)NC(C)c2nc[nH]n2)s1 (configuration not stated) .
17.2

// Percent Effect lookup, key: Cc1ccc(-c2nc(CNCC3CN(C)CCO3)cs2)o1 (configuration not stated)
-23.7

I have this molecule here, O=C(C1CC1)N1CCCC1C1CCN(Cc2ccccc2)CC1 (configuration not stated) , and I need its recorded Percent Effect.
-13.2

* * *

Organism: Homo sapiens
Assay: To identify inhibition of the IFN signalling (Jak-Stat) pathway via expression of an eGFP reporter gene under the control of an IFN-stimulated response element (ISRE) containing MxA promoter.
Format: functional
Set-up: scale not given: direction of the effect not stated beside the values
Conditions: 30 µM
The compounds listed here are annotated with their Percent Effect.
In your response, put the unit directly after the numeric value.

// worked examples, Percent Effect included
- compound: "COc1cccc([C@@H]2CCN(Cc3ccc4ccccc4n3)C[C@H]2O)c1"
  Percent Effect: "1.68%"
- compound: "C[C@H]1C(=O)NC[C@H]2CN(Cc3ccccc3)C[C@H]21"
  Percent Effect: "13.9%"
- compound: "COCC(=O)NC(C)Cc1cccc(OC)c1 (configuration not stated)"
  Percent Effect: "8.48%"
- compound: "CO[C@H]1CCN(Cc2ccccn2)[C@@H]2CN(Cc3ccco3)C[C@H]12"
  Percent Effect: "-12.9%"
- compound: "Cc1ncccc1OCC(=O)N1CCN[C@H]2CS(=O)(=O)C[C@H]21"
  Percent Effect: "-4.73%"
- compound: "O=C(NC[C@]12COC[C@H]1CN(Cc1ccncc1)C2)c1ccco1"
  Percent Effect: "7.74%"
- compound: "Cc1ccccc1CC(C)NCc1c(C)nn(C)c1N1CCOCC1 (configuration not stated)"
  Percent Effect: "-20.6%"
- compound: "COCCO[C@@H]1C[C@H]2CN(C(=O)c3ccc(C)nc3)CCN2C1"
  Percent Effect: "-12.5%"

Please give the measured Percent Effect for this compound: c1cnc(NC[C@@H]2CCC[C@@H]3CN(Cc4cccnc4)C[C@@H]32)nc1
10.2%

Would you kindly share the measured Percent Effect for CC(C)c1nc(N2CCN3CCCC3C2)c2cnn(C)c2n1 (configuration not stated) ?
-37.1%

Please give the measured Percent Effect for this compound: CC(C)c1nccc([C@H]2C[C@@H]3CCN(Cc4ccco4)C[C@H]3O2)n1
3.14%

What does the data say about its Percent Effect? Entry: CCOCC(O)CN1CCN(C(=O)Cc2ccccc2C)CC1 (configuration not stated)
20%

Entry COC[C@@H]1CCC[C@]12CN(Cc1cccc(C)n1)CCO2 has what Percent Effect?
9.81%

Requested read-out: Percent Effect. Entry: COc1c(Br)cc(Br)cc1CNC(C)Cn1cccn1 (configuration not stated)
35.9%

Can you share its Percent Effect? I mean this compound: O=C([C@H]1C[C@H]2OCC[C@H]2N(Cc2ccncc2)C1)N1CCCCO1
-2.86%

# input compound: CCS(=O)(=O)NC[C@]12COC[C@H]1CN(Cc1cc(C)on1)C2 ; wanted: its Percent Effect
-25%

For the compound NCC1(c2cccc(C(F)(F)F)c2)CCOCC1 , what Percent Effect is on record?
7.66%

* * *

Target: Shiga toxin 2 (Escherichia coli O157:H7) (UniProt P09385+P09386)
Experiment: E. coli 0.157:H7 Shiga Toxin SOP - stx2 screening assay
Format: functional
Set-up: scale not given: direction of the effect not stated beside the values
Conditions: 30 µM
Percent Effect listing for selected compounds.
Provide the reading as a plain figure in %.

Worked cases, Percent Effect given:
- compound: "COCC1CC2(CCN(Cc3cnn(C)c3)CC2)CN1C(C)C (centres undefined)"
  Percent Effect (%): -9.26
- compound: "c1cc(CN2CCN(Cc3cscn3)CC2)cs1"
  Percent Effect (%): 26.6
- compound: "CCN1CC2(CC1=O)CN(Cc1cccs1)CCN(C(=O)C(C)C)C2 (centres undefined)"
  Percent Effect (%): 0.818
- compound: "Cc1cc(C(=O)NCc2ccnc(N(C)C)c2)c(C)o1"
  Percent Effect (%): -9.84
- compound: "COCCc1noc(CN(C)C(=O)c2cccc(N3CCCC3=O)c2)n1"
  Percent Effect (%): 3.89

Request - read-out Percent Effect | tested on Shiga toxin 2 (Escherichia coli O157:H7) (UniProt P09385+P09386) | compound c1cncc(CO[C@H]2CC[C@H]3[C@@H]2OCCN3C2CCOCC2)c1
-20.6

Shiga toxin 2 (Escherichia coli O157:H7) (UniProt P09385+P09386) / Percent Effect / CCn1c(Nc2ccccc2OC)nc2c(C)nn(C)c2c1=O : value?
-16.8

Percent Effect of CCC(C)NC(=O)N1CCCn2cnc(CO)c2C1 (centres undefined) on Shiga toxin 2 (Escherichia coli O157:H7) (UniProt P09385+P09386)?
-0.62

# get_value(readout= Percent Effect, system= Shiga toxin 2 (Escherichia coli O157:H7) (UniProt P09385+P09386)) for Cc1nc2n(n1)CC(Nc1cc(C(F)(F)F)nc3ncnn13)CC2 (centres undefined)
-1.67
